Some compounds, each annotated with its measured IC50.
Tested on: Human Neutrophil
Experiment: Human Neutrophil Degranulation Assay (LTB4 induced, myeloperoxidase release)
Assay type: cell-based
Details: LTB4 5×10^-8 M, cytochalasin B, 37°C, read-out: Inhibition of LTB4 Induced Neutrophil Degranulation IC50

// below: answered compounds
Compound	Property name	Result
CCCCCCCCC(O)/C=C/C=C/c1ccc(C(O)CCCC(=O)O)s1 (stereo not drawn)	IC50	5.2 µM
CCCCCCCCC(O)/C=C/C=C/c1ccc(C(=O)CCCC(=O)O)s1 (stereo not drawn)	IC50	1.8 µM

Shift focus to the following entry.
Exercise: For the record CCCCCCCCC(O)/C=C/C=C/c1ccccc1C(=O)CCCC(=O)O (stereo not drawn) , what value of IC50 is listed for Human Neutrophil?
Key: 1 µM

src = patent US4855324A
